# measured on: IKZF2 (Helios) (Homo sapiens, UniProt Q9UKS7)
# Construct: Leu-Asp junction (codons ctcgac before the linker); mScarlet (behind P2A) (C, cleaved yes); expressed in transfected cells
# Sequence (Q9UKS7 whole entry): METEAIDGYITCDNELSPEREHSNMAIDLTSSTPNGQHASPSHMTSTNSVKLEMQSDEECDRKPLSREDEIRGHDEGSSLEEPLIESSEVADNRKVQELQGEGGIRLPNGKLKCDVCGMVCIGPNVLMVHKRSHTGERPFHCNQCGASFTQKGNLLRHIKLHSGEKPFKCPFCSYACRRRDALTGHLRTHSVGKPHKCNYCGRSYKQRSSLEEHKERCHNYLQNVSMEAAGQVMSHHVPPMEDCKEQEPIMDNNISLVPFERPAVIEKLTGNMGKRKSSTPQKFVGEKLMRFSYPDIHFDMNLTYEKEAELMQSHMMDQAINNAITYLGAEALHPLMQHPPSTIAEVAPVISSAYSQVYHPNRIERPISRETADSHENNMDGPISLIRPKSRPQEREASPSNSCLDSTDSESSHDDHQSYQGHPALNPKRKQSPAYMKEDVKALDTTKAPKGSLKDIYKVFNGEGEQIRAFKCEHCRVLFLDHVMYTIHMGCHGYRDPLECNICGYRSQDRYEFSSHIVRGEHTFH
# Sequence (Q96SW2 whole entry, further chain): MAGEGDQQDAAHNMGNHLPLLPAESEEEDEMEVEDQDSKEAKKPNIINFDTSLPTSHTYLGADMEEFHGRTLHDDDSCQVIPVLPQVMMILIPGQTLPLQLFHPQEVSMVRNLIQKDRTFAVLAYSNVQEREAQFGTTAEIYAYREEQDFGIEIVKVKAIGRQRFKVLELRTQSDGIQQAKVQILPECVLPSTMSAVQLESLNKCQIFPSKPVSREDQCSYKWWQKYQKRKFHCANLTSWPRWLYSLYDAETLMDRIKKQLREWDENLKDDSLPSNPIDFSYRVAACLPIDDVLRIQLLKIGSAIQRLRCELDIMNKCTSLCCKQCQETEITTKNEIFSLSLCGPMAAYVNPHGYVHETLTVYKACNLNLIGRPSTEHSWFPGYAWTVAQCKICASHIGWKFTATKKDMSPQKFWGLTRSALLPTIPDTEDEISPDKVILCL
# Sequence (Q16531 whole entry partner): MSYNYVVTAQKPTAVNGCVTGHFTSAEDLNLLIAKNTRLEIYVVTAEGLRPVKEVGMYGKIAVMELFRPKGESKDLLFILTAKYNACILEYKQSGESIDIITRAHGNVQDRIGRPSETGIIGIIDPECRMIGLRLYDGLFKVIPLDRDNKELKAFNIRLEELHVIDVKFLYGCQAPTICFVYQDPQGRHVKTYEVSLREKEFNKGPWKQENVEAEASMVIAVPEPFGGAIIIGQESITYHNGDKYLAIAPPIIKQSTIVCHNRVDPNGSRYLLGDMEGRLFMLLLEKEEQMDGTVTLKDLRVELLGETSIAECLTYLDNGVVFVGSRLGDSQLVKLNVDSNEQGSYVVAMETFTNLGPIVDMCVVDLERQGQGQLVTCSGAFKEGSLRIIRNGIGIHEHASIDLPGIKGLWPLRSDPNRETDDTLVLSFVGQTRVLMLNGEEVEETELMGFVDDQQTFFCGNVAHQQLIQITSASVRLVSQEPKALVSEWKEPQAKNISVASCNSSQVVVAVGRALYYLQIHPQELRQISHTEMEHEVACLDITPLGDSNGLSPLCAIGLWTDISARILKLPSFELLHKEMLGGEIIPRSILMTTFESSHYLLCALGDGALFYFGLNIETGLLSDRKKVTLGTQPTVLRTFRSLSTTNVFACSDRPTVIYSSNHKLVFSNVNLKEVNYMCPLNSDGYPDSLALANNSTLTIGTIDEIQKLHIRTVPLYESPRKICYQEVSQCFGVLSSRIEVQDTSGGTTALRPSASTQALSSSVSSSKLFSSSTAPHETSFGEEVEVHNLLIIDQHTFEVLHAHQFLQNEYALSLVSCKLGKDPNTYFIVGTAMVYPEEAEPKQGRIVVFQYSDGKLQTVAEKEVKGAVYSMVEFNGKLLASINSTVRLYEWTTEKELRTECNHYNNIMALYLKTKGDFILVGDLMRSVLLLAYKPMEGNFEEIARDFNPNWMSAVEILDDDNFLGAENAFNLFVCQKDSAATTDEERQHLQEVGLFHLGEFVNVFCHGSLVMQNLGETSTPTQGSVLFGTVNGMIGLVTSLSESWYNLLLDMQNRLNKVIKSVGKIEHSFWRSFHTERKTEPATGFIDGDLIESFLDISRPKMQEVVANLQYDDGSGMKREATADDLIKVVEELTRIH
# experiment description: IKZF2 reporter degradation assay (HEK 293T IKZF2-mNeonGreen reporter cell line)
# Format: cell-based
# condition notes: HEK 293T IKZF2-mNeonGreen reporter, 24 hours incubation
DC50 less than 60 nM is Fulfilled; DC50 greater than or equal to 60 nM is Not fulfilled.

1) O=C1CCC(N2Cc3cc(O[C@H]4CCCC[C@H]4N4CC(c5cncc(Cl)c5)C4)ccc3C2=O)C(=O)N1 (single isomer, unassigned) [Compound 115-B]; Not fulfilled
2) Cc1cnccc1C1CN(C2CCCCC2Oc2ccc3c(c2)CN(C2CCC(=O)NC2=O)C3=O)C1 (stereo not drawn); Fulfilled
3) O=C1CCC(N2Cc3cc(O[C@H]4CCCC[C@@H]4N4CC(c5ccnc6[nH]ccc56)C4)ccc3C2=O)C(=O)N1 (single isomer, unassigned); Not fulfilled
4) O=C1CCC(N2Cc3cc(O[C@@H]4CCCC[C@H]4N4CC(c5ccc(C(F)(F)F)nc5)C4)ccc3C2=O)C(=O)N1 (single isomer, unassigned) [Compound 125-B]; Not fulfilled
5) O=C1CCC(N2Cc3cc(O[C@H]4CCCC[C@@H]4N4CC(c5ncc(C(F)(F)F)cn5)C4)ccc3C2=O)C(=O)N1 (single isomer, unassigned) [Compound 120-B]; Fulfilled

API: query returns whether the compound falls strictly under 60 nM in DC50. Query: O=C1CCC(N2Cc3cc(O[C@H]4CCCC[C@@H]4N4CC(c5ccncc5F)C4)ccc3C2=O)C(=O)N1 (mixture of isomers) [Compound 167-B]
Not fulfilled
